- System: Brucella suis
- TEST_DESCRIPTION: Antibacterial activity against Brucella suis 1330 in minimal medium after 96 hrs
- Format: functional, organism-based
RECORDED_METRIC: inhibition

{"TEST_SMILES": "Cl.Cl.N[C@@H](Cc1c[nH]cn1)C(=O)Cc1ccc(Cl)cc1", "RESULT": "Dose-dependent effect"}
{"TEST_SMILES": "Cl.Cl.N[C@@H](Cc1c[nH]cn1)C(=O)Cc1ccc2ccccc2c1", "RESULT": "Dose-dependent effect"}
{"TEST_SMILES": "Cl.Cl.N[C@@H](Cc1c[nH]cn1)C(=O)Cc1ccc(-c2ccccc2)cc1", "RESULT": "Dose-dependent effect"}
{"TEST_SMILES": "Cl.Cl.N[C@@H](Cc1c[nH]cn1)C(=O)Cc1ccc(Br)cc1", "RESULT": "Dose-dependent effect"}
